# test.system: 20S catalytic subunit of the proteasome (multicatalytic proteinase complex) (Bos taurus)
# Construct: was purified to homogeneity from bovine brain according to published methods; from tissue; host or cells: bovine brain
# assay.procedure: 20S proteasome chymotryptic activity, fluorogenic peptide cleavage
# Assay type: biochemical, bovine
# particulars: 50 μM succinyl-leu-leu-val-tyr-7-amino-4-methyl coumarin, 15 minutes at 37° C, pH7.5
quantity.kind: IC50

Examples with answers:
| compound | reported.measurement |
| --- | --- |
| COc1ccc2c(c1)C(CC(=O)N(c1ccc(O)cc1)c1ccc3ccccc3c1)CC2=O (stereo not drawn) [Compound 144] | > 10 µg/mL |
| COc1ccc2c(c1)C(CC(=O)NC(CO)C(O)c1ccccc1)CC2=O (stereo not drawn) [Compound 118] | > 10 µg/mL |
| COc1ccc2c(c1)C(CC(=O)NC(CC1CCCCC1)C(=O)NC(CC(C)C)C(N)=O)CC2=O (mixture of isomers) [Compound 13] | > 10 µg/mL |

[Q] Please give the documented IC50 of COc1ccc2c(c1)C(CC(=O)NC(CC(C)C)C(=O)NC(CC(C)C)C(=O)NCc1c(F)cccc1F)CC2=O (mixture of isomers) [Compound 196]
[A] 0.08 µg/mL

[Q] Please give the documented IC50 of COc1ccc2c(c1)C(CC(=O)NC(CC(C)C)C(=O)NC(CC(C)C)C(N)=O)CC2=O (mixture of isomers) [Compound 2]
[A] 1 µg/mL

[Q] Please give the documented IC50 of COc1ccc(CNC(=O)CC2CC(=O)c3ccc(OC)cc32)cc1 (stereo not drawn) [Compound 85]
[A] > 10 µg/mL

[Q] Please give the documented IC50 of COc1ccc2c(c1)C(CC(=O)NC(CC(=O)O)C(=O)NC(CC(C)C)C(N)=O)CC2=O (mixture of isomers) [Compound 94]
[A] > 10 µg/mL

[Q] Please give the documented IC50 of COc1ccc2c(c1)C(CC(=O)Nc1nc(O)c(C)c(O)n1)CC2=O (stereo not drawn) [Compound 145]
[A] > 10 µg/mL

###

Form field: IC50 for inhibition of cell proliferation, Panc-I (one value per entry).
# Test system: Panc-I cells
# assay.procedure: Celltiter 96 Aqueous cell proliferation assay, Panc-I
# Type: cell-based
# particulars: 18 hours with compound
Just the number in µg/mL, nothing appended.

| compound | display.unit | reported.measurement |
| --- | --- | --- |
| COc1ccc2c(c1)C(CC(=O)NC(CC(C)C)C(=O)NC(CC(C)C)C(=O)NC1CCc3ccccc31)CC2=O (mixture of isomers) | µg/mL | 7 |
| COc1ccc2c(c1)C(CC(=O)NC(CC(C)C)C(=O)NC(CC(C)C)C(=O)NCc1ccc3c(c1)OCO3)CC2=O (mixture of isomers) | µg/mL | 8 |
| COc1ccc2c(c1)C(CC(=O)NC(CC(C)C)C(=O)NC(CC(C)C)C(=O)NCc1c(F)cccc1F)CC2=O (mixture of isomers) | µg/mL | 8 |
| COc1ccc2c(c1)C(CC(=O)NC(CC(C)C)C(=O)NC(CC(C)C)C(=O)NCc1ccccc1)CC2=O (mixture of isomers) | µg/mL | 17 |

[Q] Please give the documented IC50 for inhibition of cell proliferation, Panc-I of COc1ccc(CNC(=O)C(CC(C)C)NC(=O)C(CC(C)C)NC(=O)CC2CC(=O)c3ccc(OC)cc32)cc1 (mixture of isomers)
[A] 8

###

# test.system: 20S catalytic subunit of the proteasome (multicatalytic proteinase complex) (Bos taurus, UniProt Q32KL2)
# Construct: was purified to homogeneity from bovine brain according to published methods; from tissue; host or cells: bovine brain
# assay.procedure: 20S proteasome chymotryptic activity, fluorogenic peptide cleavage
# Type: biochemical, bovine
# particulars: 50 μM succinyl-leu-leu-val-tyr-7-amino-4-methyl coumarin, 15 minutes at 37° C, pH7.5
Form field: IC50 (one value per entry).

Examples with answers:
| compound | IC50 |
| --- | --- |
| COc1ccc2c(c1)C(CC(=O)NC(CC(C)C)C(=O)NC(CC(C)C)C(=O)NCC(N)=O)CC2=O (mixture of isomers) [Compound 21] | 0.1 µg/mL |
| COc1ccc2c(c1)C(CC(=O)NC(CC(C)C)C(=O)NC(CC(C)C)C(=O)O)CC2=O (mixture of isomers) [Compound 172] | > 10 µg/mL |
| COc1ccc2c(c1)C(CC(=O)NC(CC(C)C)C(=O)NC(CC(N)=O)C(N)=O)CC2=O (mixture of isomers) [Compound 131] | > 10 µg/mL |
| COc1ccc2c(c1)C(CC(=O)NC(Cc1c[nH]c3ccccc13)C(=O)NC(CC(C)C)C(N)=O)CC2=O (mixture of isomers) [Compound 103] | > 10 µg/mL |
| COc1ccc2c(c1)C(CC(=O)NC(CC(C)C)C(=O)NC(CC(C)C)C(=O)NCC(N)=O)CC2=O (mixture of isomers) [Compound 18] | 5 µg/mL |

[Q] Please give the documented IC50 of COc1ccc2c(c1)C(CC(=O)NC(CC(C)C)C(N)=O)CC2=O (mixture of isomers) [Compound 3]
[A] > 10 µg/mL

###

Form field: IC50 for inhibition of cell proliferation, RAW (one value per entry).
# Test system: RAW cells
# assay.procedure: Celltiter 96 Aqueous cell proliferation assay, RAW
# Assay type: cell-based
# particulars: 18 hours with compound
Just the number in µg/mL, nothing appended.

Examples with answers:
| compound | test.system | display.unit | reported.measurement |
| --- | --- | --- | --- |
| COc1ccc2c(c1)C(CC(=O)NC(CC(C)C)C(=O)NC(CC(C)C)C(=O)NCc1ccccc1)CC2=O (mixture of isomers) [Compound 173] | RAW cells | µg/mL | 20 |
| COc1ccc2c(c1)C(CC(=O)NC(CC(C)C)C(=O)NC(CC(C)C)C(=O)NC1CCc3ccccc31)CC2=O (mixture of isomers) [Compound 187] | RAW cells | µg/mL | 10 |
| COc1ccc2c(c1)C(CC(=O)NC(CC(C)C)C(=O)NC(CC(C)C)C(=O)NCc1ccc3c(c1)OCO3)CC2=O (mixture of isomers) [Compound 197] | RAW cells | µg/mL | 12 |
| COc1ccc(CNC(=O)C(CC(C)C)NC(=O)C(CC(C)C)NC(=O)CC2CC(=O)c3ccc(OC)cc32)cc1 (mixture of isomers) [Compound 194] | RAW cells | µg/mL | 1 |

Now, please, on to the next compound.
[Q] Please give the documented IC50 for inhibition of cell proliferation, RAW of COc1ccc2c(c1)C(CC(=O)NC(CC(C)C)C(=O)NC(CC(C)C)C(=O)NCc1c(F)cccc1F)CC2=O (mixture of isomers) [Compound 196]
[A] 7

###

# test.system: 20S catalytic subunit of the proteasome (multicatalytic proteinase complex) (Bos taurus, UniProt Q32KL2)
# Construct: was purified to homogeneity from bovine brain according to published methods; from tissue; host or cells: bovine brain
# assay.procedure: 20S proteasome chymotryptic activity, fluorogenic peptide cleavage
# Format: biochemical, bovine
# particulars: 50 μM succinyl-leu-leu-val-tyr-7-amino-4-methyl coumarin, 15 minutes at 37° C, pH7.5
quantity.kind: IC50

| compound | quantity.kind | reported.measurement |
| --- | --- | --- |
| COc1ccc2c(c1)C(CC(=O)NC(CC(C)C)C(=O)NC(CC(C)C)C(=O)N(C)Cc1ccccc1)CC2=O (mixture of isomers) [Compound 180] | IC50 | > 10 µg/mL |
| COc1ccc2c(c1)C(CC(=O)NC(C)(C)CO)CC2=O (stereo not shown) | IC50 | > 10 µg/mL |
| CCCCC(NC(=O)CC1CC(=O)c2ccc(OC)cc21)C(=O)NC(CC(C)C)C(N)=O (mixture of isomers) [Compound 16] | IC50 | > 10 µg/mL |
| COc1ccc2c(c1)C(CC(=O)NC(C(=O)NC(CC(C)C)C(=O)NCC(N)=O)c1ccccc1)CC2=O (mixture of isomers) | IC50 | > 10 µg/mL |
| COc1ccc2c(c1)C(CC(=O)NC(CC(C)C)C(=O)NC(CO)C(N)=O)CC2=O (mixture of isomers) | IC50 | > 10 µg/mL |
| COc1ccc2c(c1)C(CC(=O)NC(CC(C)C)C(=O)NC(CC(C)C)C(=O)NCCO)CC2=O (mixture of isomers) | IC50 | > 10 µg/mL |
| COc1ccc2c(c1)C(CC(=O)NC(CC(C)C)C(N)=O)CC2=O (mixture of isomers) [Compound 1] | IC50 | 5 µg/mL |
| COc1ccc2c(c1)C(CC(=O)NC(CC(C)C)C(=O)NC(C)C(N)=O)CC2=O (mixture of isomers) [Compound 52] | IC50 | > 10 µg/mL |
| COc1ccc2c(c1)C(CC(=O)NC(CC(C)C)C(=O)NC(CC(C)C)C(=O)NCCc1ccccc1)CC2=O (mixture of isomers) | IC50 | > 10 µg/mL |
| COc1ccc2c(c1)C(CC(=O)N[C@@H](CC(C)C)C(=O)N[C@H](CC1CCCCC1)C(=O)NCC(N)=O)CC2=O (stereo partly shown) | IC50 | > 10 µg/mL |

[Q] Please give the documented IC50 of COc1ccc2c(c1)C(CC(=O)NC(CC(C)C)C(=O)NC(CC(C)C)C(N)=O)CC2=O (mixture of isomers) [Compound 7]
[A] > 10 µg/mL

[Q] Please give the documented IC50 of COc1ccc2c(c1)C(CC(=O)NC(CC(C)C)C(=O)NC(CC(C)C)C(=O)NCc1ccc3c(c1)OCO3)CC2=O (mixture of isomers)
[A] 0.2 µg/mL

[Q] Please give the documented IC50 of COc1ccc2c(c1)C(CC(=O)NC(CC(C)C)C(=O)NCC(=O)NCC(N)=O)CC2=O (mixture of isomers)
[A] > 10 µg/mL
